Please go through the items and note down their TGI.
- Test system: SF-295 CNS
- protocol details: NCI tumour cell line growth inhibition, 48 h
Numeric only. Scale: µM

Any idea what its TGI is? The molecule is CCCCCCOc1ccc(NC2=C(Cl)C(=O)c3ncccc3C2=O)cc1
3.59

Would you kindly share the measured TGI for COC1/C=C/C(C)C(C(C)C(OC)C(C)CCC(=O)C(C)C(C/C=C/N(C)C=O)OC)OC(=O)/C=C/C=C(\C)CC(OC)C(OC)C2=CC(=O)O[C@@H](C(C)C(OC)CC(OC)/C=C/C(C)C(O)C1)[C@H]2O (stereo partly drawn) ?
0.273

Please look up its TGI: C/C(N=Nc1nc2ccccc2o1)=C1/C=CC=CN1O
10.1

---

Could you please report measured TGI for the items listed next?
- Tested on: COLO 205 colon
- protocol details: NCI tumour cell line growth inhibition, 48 h

Any idea what its TGI is? The compound is O=C1OCC2=C1C(c1cccc(C(F)(F)F)c1)c1cc3c(cc1N2CCO)CCC3 (stereo not given)
1.59 µM

Please look up its TGI: O=C(c1ccccc1)N1C(=S)N(c2ccc([N+](=O)[O-])cc2)C(=Nc2ccccc2)C1=Nc1ccccc1
> 100 µM

Consider the compound shown here: CN1CCC(n2[nH]c(-c3ccccc3)c(Cc3ccccc3)c2=O)CC1 What is its recorded TGI?
> 100 µM

# lookup: TGI of COc1nc2[nH]ccc2c(=O)n1C
> 100 µM

Can you share its TGI? I mean this compound: CC1CC2(CCC1OCc1ccccc1)OCCO2 (stereo not given)
> 100 µM

Using the record for COc1cc(CNc2nc3cc(C(F)(F)F)ccc3nc2C)cc(OC)c1OC , report its TGI.
30.2 µM

State the recorded TGI for this entry: CN(C)S(=O)(=O)c1ccc(Nc2ccc(O)c3c2C(=O)c2c([N+](=O)[O-])ccc(O)c2C3=O)cc1
> 100 µM

Fill in the blank: the reported TGI of COc1ccc2c(c1)-c1oc3ccccc3c(=O)c1CO2 is ____.
> 100 µM

TGI for NC(=O)c1c2c(cc3c(=O)c4ccccc4[nH]c13)CCCC2 ?
> 100 µM

Look up TGI for this compound: Clc1ncnc2c1ncn2CCCCCCCCCCCCn1cnc2c(Cl)ncnc21
29.1 µM

---

- Tested on: UACC-257 melanoma
- protocol details: NCI tumour cell line growth inhibition, 48 h
value type: GI50

Look up GI50 with UACC-257 melanoma for this molecule: Cc1cc(C)c2c(N)c3cccc(C)c3nc2n1
2.15 µM

Look up GI50 with UACC-257 melanoma for this molecule: COc1cc2c(cc1OC)-c1c(c3ccc([N+](=O)[O-])cc3c(=O)n1CCCN)C2=O
6.79 µM

Find the measured GI50: item COC(=O)[C@@H]1CCCN1C(=O)[C@H]1CCCN1C(=O)[C@@H](Cc1c[nH]c2ccccc12)NC(=S)Nc1cc(C(F)(F)F)cc(C(F)(F)F)c1 , target or system UACC-257 melanoma.
2.5 µM

Lab note: need GI50 with UACC-257 melanoma for entry C=C(C)[C@@H]1CC[C@]2(C(=O)NCCNCCNCCN)CC[C@]3(C)[C@H](CC[C@@H]4[C@@]5(C)CCC(=O)C(C)(C)[C@@H]5CC[C@]43C)[C@@H]12 , please look it up.
7.91 µM

Provide value of GI50 for this record tested with UACC-257 melanoma: Cc1ccc(Oc2nc3ccccc3cc2-c2nnc(Cn3c(COc4ccccc4)nc4ccccc43)o2)cc1
3.28 µM

Form: Entry = COc1ccc(-n2c(C)nc3c(c(C)nn3-c3ccccc3)c2=O)cc1 | System = UACC-257 melanoma | GI50 = ____
5.82 µM

What reported GI50 corresponds to Cc1ccc(/C(=C/C=C(C#N)C#N)Sc2ccccn2)cc1 on UACC-257 melanoma?
14.6 µM

What measured GI50 is associated with CCOC(=O)C1=C(c2ccccc2)N(c2ccc(OC)cc2)[C@]2(C#N)C(O)=C(Cl)C(Cl)=C(O)[C@]12C#N on UACC-257 melanoma?
22.2 µM

Could you share what GI50 was measured for CCCCCCN1CCN(Cc2ccc(N(CC)CC)cc2)C(=O)C1=O , tested on UACC-257 melanoma?
16.9 µM

Write down the reported GI50 of Cc1cn2c(=O)n(c1=O)Cc1ccccc1C2 , test system: UACC-257 melanoma.
> 100 µM

Item: COc1cc2c3c(n(C)c(=O)c2cc1OC)-c1cc2c(cc1/C3=C/[C@H](N)CCCCN)OCO2 Test system: UACC-257 melanoma Read-out: GI50 Value: ?
1.98 µM

---

Kindly supply the reported TGI values for the records listed here.
- Test system: TK-10 renal
- protocol details: NCI tumour cell line growth inhibition, 48 h
Report only the number, with the unit µM understood.

I have this molecule here, COc1cc(-c2n/c(=C\c3c(O)[nH]c4ccccc34)cc3c2=Nc2ccccc2-3)cc(OC)c1OC , and I need its recorded TGI.
25

Need TGI, item Cc1cc(C)c2c(N)c3cccc(C)c3nc2n1
7.05

Recorded TGI for COc1ccc2[nH]cc(-c3nc(-c4c[nH]c5ccncc45)cs3)c2c1 , please?
4.64

Given the molecule CCC(C)C1(O)OC2CC3(C)OC(=CC3=O)/C(C)=C\C3OC(=O)C1(C)C32 (stereo unspecified) , what is its reported TGI?
54.2

# query: TGI of entry Cc1ccc(Oc2nc3ccccc3cc2-c2nnc(Cn3c(COc4ccccc4)nc4ccccc43)o2)cc1
9.92

Can you share its TGI? I mean this molecule: CS(=O)(=O)O.[Ag]
7.74

---

- System: NCI-H460 lung
- protocol details: NCI tumour cell line growth inhibition, 48 h
value type: TGI (µM)
Give the quantity in µM, number only.

Give its TGI value. Item: CCOC(=O)/C(=C\c1ccc(F)cc1)C(C)=O
97.4

TGI lookup needed for COc1ccc2[nH]cc(-c3nc(-c4c[nH]c5ccncc45)cs3)c2c1 , thanks.
3.73

What value of measured TGI is listed for COc1cc(CNc2nc3cc(C(F)(F)F)ccc3nc2C)cc(OC)c1OC ?
36

May I ask what TGI has been recorded for Oc1cc(Cl)ccc1Cc1ccc(Cl)cc1O ?
19.4

For Cc1cc2nc3c4cccc(O)c4n(CCN(C)C)c3nc2cc1C , what is its reported TGI?
6.13

Record request: TGI value, item COc1cc(-c2n/c(=C\c3c(O)[nH]c4ccccc34)cc3c2=Nc2ccccc2-3)cc(OC)c1OC
1.76

Requested read-out: TGI. Entry: CS(=O)(=O)O.[Ag]
49.5

For the molecule shown here, CC(C)C(C/C=C1\CC(CO)(COC(=O)CC(C(C)C)C(C)C)OC1=O)C(C)C (configuration not stated) , give the reported TGI.
21.7

I would be grateful if you could share the reported TGI for N#Cc1c(N2CCN(c3ccc([N+](=O)[O-])cc3)CC2)[n+](=O)c2ccc(Cl)cc2n1[O-] .
3.7

---

Assign TGI to each entry below.
- System: EKVX NSCLC
- protocol details: NCI tumour cell line growth inhibition, 48 h

Test system EKVX NSCLC; read-out TGI; what value for COc1nc2[nH]ccc2c(=O)n1C ?
> 100 µM

Request: TGI, test system EKVX NSCLC, entry Oc1cc(Cl)ccc1Cc1ccc(Cl)cc1O
36 µM

# get_value(readout= TGI, system= EKVX NSCLC) for COc1ccc2[nH]cc(-c3nc(-c4c[nH]c5ccncc45)cs3)c2c1
4.88 µM

Recall the recorded TGI for C#CCOC(=O)C(N)CCCN=C(N)N (stereo unspecified) with EKVX NSCLC and state it.
> 100 µM

Request - read-out TGI | tested on EKVX NSCLC | compound O=C(O)CCCNS(=O)(=O)c1ccc2ccccc2c1
> 100 µM

Can you look up TGI on EKVX NSCLC for Cc1c(F)c(N)c2c(=O)cc(-c3ccc(NC(=O)C(N)CCCN=C(N)N)c(F)c3)oc2c1F (stereo unspecified) ?
> 100 µM

Recorded TGI for CN(C)S(=O)(=O)c1ccc(Nc2ccc(O)c3c2C(=O)c2c([N+](=O)[O-])ccc(O)c2C3=O)cc1 with EKVX NSCLC, please?
> 100 µM

Value wanted: TGI (EKVX NSCLC) of entry CCOC12SC(=Nc3ccc(C)cc3)NN1C(=S)N(C)N=C2C (stereo unspecified)
> 100 µM

Any idea what TGI came out for Oc1ccc(CN(Cc2ccc(C(F)(F)F)cc2)Cc2ccc(O)c3ncccc23)c2cccnc12 on EKVX NSCLC?
> 100 µM

# returns recorded TGI (system: EKVX NSCLC) for CCS(=O)(=O)c1c2cc(OC)ccc2nc2ccc(OC)cc12
> 100 µM

Provide the documented TGI with EKVX NSCLC as the system for COc1ccc2c(c1)[C@@]1(C)CCC3c4ccc(O)cc4CCC3C1C2 (stereo partly specified)
33.2 µM
